Test system: MCF7 cells
Experiment: Whole cell cytotoxicity assay: Sulforhodamine B
Format: cell-based, Human
Settings: Homo sapiens; compound concentration 100 μM; MCF7 cell growth, 48 hours with drug, SRB staining
Protocol: The following procedure can be found on the Developmental Therapeutics Program NCI/NIH web site at http://dtp.nci.nih.gov/brancehes/btb/ivclsp.html. 1. Human tumor cell lines of HT29, A549 and MCF7 are grown in DMEM containing 10% fetal bovine serum and 2 mM L-glutamine. Cells are plated in a 96 well plate at a density of 5000 cells per well in 100 uL of growth medium and incubated at 37° C., 5% CO2, for 24 hours prior to the addition of experimental compounds. 2. […] 8. Absorbance is read at 570 nm.
quantity.measured: inhibition at 100 µM (%)
One number for each entry, in %.

> print(dat)
                              smiles.string  assayed.system     quantity.measured  quantitative.readout
1  O=C(NO)c1cnc(N2CCN(S(=O)(=O)c3ccc(-c4cccc(CN(CCO)CCO)c4)cc3)CC2)s1      MCF7 cells  inhibition at 100 µM                    85
2  O=C(NO)c1cnc(N2CCN(S(=O)(=O)c3cccc(OC(F)F)c3)CC2)s1      MCF7 cells  inhibition at 100 µM                   100

// batch mode: one inhibition at 100 µM value per listed entry
1. CC(=O)NCc1cccc(-c2ccc(S(=O)(=O)N3CCN(c4ncc(C(=O)NO)s4)CC3)cc2)c1
2. CCCCN(C)Cc1cccc(-c2ccc(S(=O)(=O)N3CCN(c4ncc(C(=O)NO)s4)CC3)cc2)c1
3. COCc1cccc(-c2ccc(S(=O)(=O)N3CCN(c4ncc(C(=O)NO)s4)CC3)cc2)c1
4. O=C(NO)c1cnc(N2CCN(S(=O)(=O)c3ccc(-c4cccc(CN5CC=CCC5)c4)cc3)CC2)s1
5. O=C(NO)c1cnc(N2CCN(S(=O)(=O)c3ccc(N4CCCCC4)cc3)CC2)s1
6. Cc1ccc(S(=O)(=O)N2CCN(c3ncc(C(=O)NO)s3)CC2)cc1[N+](=O)[O-]

Ans:
[89, 97, 92, 92, 97, 96]

The measured values listed here are drawn from patent US20050250784A1.
